Cited source: paper PMC10979453

Target: Angiotensin-converting enzyme (ACE) from rabbit lung (Oryctolagus cuniculus, UniProt P12822)
Construct: Angiotensin-converting enzyme (ACE) from rabbit lung (A6778); purchased Sigma-Aldrich A6778; host or cells: rabbit lung (tissue-derived enzyme)
Sequence (P12822 34-1310): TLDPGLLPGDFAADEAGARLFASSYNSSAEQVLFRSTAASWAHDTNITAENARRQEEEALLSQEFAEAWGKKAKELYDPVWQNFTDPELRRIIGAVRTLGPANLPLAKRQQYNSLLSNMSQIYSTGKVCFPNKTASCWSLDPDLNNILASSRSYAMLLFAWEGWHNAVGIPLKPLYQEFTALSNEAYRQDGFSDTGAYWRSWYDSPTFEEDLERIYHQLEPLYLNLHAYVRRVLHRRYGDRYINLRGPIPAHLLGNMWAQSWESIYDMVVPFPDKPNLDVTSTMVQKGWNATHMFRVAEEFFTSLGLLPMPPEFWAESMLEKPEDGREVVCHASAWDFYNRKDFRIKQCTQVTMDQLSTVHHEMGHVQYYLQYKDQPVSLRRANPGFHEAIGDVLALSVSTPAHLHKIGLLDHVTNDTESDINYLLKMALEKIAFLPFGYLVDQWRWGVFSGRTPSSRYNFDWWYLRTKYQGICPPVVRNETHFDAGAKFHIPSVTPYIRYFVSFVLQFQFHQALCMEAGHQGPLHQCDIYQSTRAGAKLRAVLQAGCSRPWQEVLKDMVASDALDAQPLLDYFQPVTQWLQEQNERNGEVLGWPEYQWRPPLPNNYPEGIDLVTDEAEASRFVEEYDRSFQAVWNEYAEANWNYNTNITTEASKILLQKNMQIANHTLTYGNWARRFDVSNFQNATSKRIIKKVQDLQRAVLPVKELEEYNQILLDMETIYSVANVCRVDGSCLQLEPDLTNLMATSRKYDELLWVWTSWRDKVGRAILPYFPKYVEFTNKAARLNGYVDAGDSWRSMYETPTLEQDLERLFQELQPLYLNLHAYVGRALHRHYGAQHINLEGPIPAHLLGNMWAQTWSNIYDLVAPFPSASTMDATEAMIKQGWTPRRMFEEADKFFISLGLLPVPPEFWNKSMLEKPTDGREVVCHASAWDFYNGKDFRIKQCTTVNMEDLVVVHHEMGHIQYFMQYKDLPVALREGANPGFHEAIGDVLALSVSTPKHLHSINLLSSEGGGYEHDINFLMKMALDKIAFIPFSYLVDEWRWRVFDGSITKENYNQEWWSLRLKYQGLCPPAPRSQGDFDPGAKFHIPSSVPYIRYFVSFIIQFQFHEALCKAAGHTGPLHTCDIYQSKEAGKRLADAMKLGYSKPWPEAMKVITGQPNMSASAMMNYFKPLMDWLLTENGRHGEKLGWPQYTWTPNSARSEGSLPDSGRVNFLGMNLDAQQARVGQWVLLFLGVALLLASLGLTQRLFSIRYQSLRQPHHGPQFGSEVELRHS
Experiment: in vitro ACE inhibitory activity (HHL substrate)
Type: biochemical
Details: mean ± SD; read-out: ACE Inhibition (IC50 μM)
Peptide text beside a SMILES is read from it.
experimental-endpoint: IC50 (µM)
Answer format: numeric, µM implied, no suffix.

// IC50 lookup, compound = CC[C@H](C)[C@H](NC(=O)[C@@H](NC(=O)[C@@H](N)C(C)C)C(C)C)C(=O)N1CCC[C@H]1C(=O)N[C@H](C(=O)N[C@@H](CCC(=O)O)C(=O)N1CCC[C@H]1C(=O)N1CCC[C@H]1C(=O)N[C@@H](Cc1c[nH]cn1)C(=O)O)[C@@H](C)O [VVIPTEPPH] (H-VVIPTEPPH-OH) , result: 43

Record CC[C@H](C)[C@H](NC(=O)[C@@H](N)C(C)C)C(=O)N1CCC[C@H]1C(=O)N[C@H](C(=O)N[C@@H](CCC(=O)O)C(=O)N1CCC[C@H]1C(=O)N1CCC[C@H]1C(=O)N[C@@H](Cc1c[nH]cn1)C(=O)O)[C@@H](C)O [VIPTEPPH] (H-VIPTEPPH-OH) , field IC50: 90

The compound listed as CC[C@H](C)[C@H](NC(=O)[C@@H](NC(=O)[C@@H](N)C(C)C)C(C)C)C(=O)N1CCC[C@H]1C(=O)N[C@H](C(=O)N[C@@H](CCC(=O)O)C(=O)N1CCC[C@H]1C(=O)N1CCC[C@H]1C(=O)N[C@@H](Cc1c[nH]cn1)C(=O)N[C@@H](C)C(=O)O)[C@@H](C)O [VVIPTEPPHA] (H-VVIPTEPPHA-OH) has a reported IC50 of 50

# IC50 of CC[C@H](C)[C@H](NC(=O)[C@@H](N)C(C)C)C(=O)N1CCC[C@H]1C(=O)N[C@H](C(=O)N[C@@H](CCC(=O)O)C(=O)N1CCC[C@H]1C(=O)N1CCC[C@H]1C(=O)N[C@@H](Cc1c[nH]cn1)C(=O)N[C@@H](C)C(=O)O)[C@@H](C)O [VIPTEPPHA] (H-VIPTEPPHA-OH) = 123
